Every entry's value here was drawn from patent US20240383958A1.

Test Target: T1, apelin receptor (AGTRL1) on CHO-K1 cells (UniProt P35414 1-380, limits assumed)
T1 sequence (looked up): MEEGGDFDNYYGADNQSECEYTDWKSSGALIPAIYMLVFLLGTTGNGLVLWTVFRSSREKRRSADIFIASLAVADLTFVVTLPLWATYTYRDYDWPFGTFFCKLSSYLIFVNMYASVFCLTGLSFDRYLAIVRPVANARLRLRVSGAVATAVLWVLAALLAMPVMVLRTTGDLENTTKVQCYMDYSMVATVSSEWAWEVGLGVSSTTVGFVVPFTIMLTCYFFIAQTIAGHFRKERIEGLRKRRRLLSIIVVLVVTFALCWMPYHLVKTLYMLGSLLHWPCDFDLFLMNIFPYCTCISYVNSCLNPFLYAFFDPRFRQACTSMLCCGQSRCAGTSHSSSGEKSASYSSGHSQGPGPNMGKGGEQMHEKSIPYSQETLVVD
Method Description: cell-based or functional assay
Metric: cAMP EC50 (nM) Exp. 1
Write down the numeric answer in nM and omit the unit.

Previously resolved entries follow.
{"Binder": "ELA-A (Fc fusion) DKTHTSPPSPAPEAAGGPSVFLFPPKPKDTLMISRTPEVTCVVVDVSHEDPEVKFNWYVDGVEVHNAKTKPREEQYNSTYRVVSVLTVLHQDWLNGKEYKCKVSNKALPAPIEKTISKAKGQPREPQVYTLPPSREEMTKNQVNLTCLVKGFYPSDIAVEWESNGQPENNYKTTPPVLDSDGSFFLNSTLTVDKSRWQQGNVFSCSVMHEALHNHYTQKSLSLSPGKGGGGSGGGGSGGGGSKLRKHNCLQRRCMPLHSRVPFP", "cAMP EC50 (nM) Exp. 1": 0.85}
{"Binder": "ELA-H (Fc fusion) DKTHTSPPSPAPEAAGGPSVFLFPPKPKDTLMISRTPEVTCVVVDVSHEDPEVKFNWYVDGVEVHNAKTKPREEQYNSTYRVVSVLTVLHQDWLNGKEYKCKVSNKALPAPIEKTISKAKGQPREPQVYTLPPSREEMTKNQVNLTCLVKGFYPSDIAVEWESNGQPENNYKTTPPVLDSDGSFFLNSTLTVDKSRWQQGNVFSCSVMHEALHNHYTQKSLSLSPGKGGGGSGGGGSGGGGSKLRKHNCLQRRCMPYHSRVPFP", "cAMP EC50 (nM) Exp. 1": 10}

[Q] State the recorded cAMP EC50 (nM) Exp. 1 for this entry: ELA-D (Fc fusion) DKTHTSPPSPAPEAAGGPSVFLFPPKPKDTLMISRTPEVTCVVVDVSHEDPEVKFNWYVDGVEVHNAKTKPREEQYNSTYRVVSVLTVLHQDWLNGKEYKCKVSNKALPAPIEKTISKAKGQPREPQVYTLPPSREEMTKNQVNLTCLVKGFYPSDIAVEWESNGQPENNYKTTPPVLDSDGSFFLNSTLTVDKSRWQQGNVFSCSVMHEALHNHYTQKSLSLSPGKGGGGSGGGGSGGGGSKLRKHNCLQRRCMPLHQRVPFP
[A] 10.7
